test: Metabolic stability in mouse liver microsomes assessed as compound remaining at 1 uM after 60 mins by LC-MS analysis; format: ADME, Microsome; details: read-out: Stability
Property: remaining at 1 h, 1 µM

Need remaining at 1 h, 1 µM, item CCN(CC)CCOc1ccc(-c2nc3c(=O)n(C)c(=O)nc-3n(-c3ccccc3)n2)cc1
31.8%

----------
test: Metabolic stability in mouse liver microsomes assessed as compound remaining at 1 uM after 30 mins by LC-MS analysis; format: ADME, Microsome; details: read-out: Stability
Property: remaining at 0.5 h, 1 µM (%)
Numbers only; they are read as %.

Need remaining at 0.5 h, 1 µM, item CCN(CC)CCOc1ccc(-c2nc3c(=O)n(C)c(=O)nc-3n(-c3ccccc3)n2)cc1
70.7

----------
system: Liver; assay: Metabolic stability in mouse liver microsomes assessed as half life at 1 uM after 1 to 60 mins by LC-MS analysis; type: ADME, Microsome
Property: t1/2 (min)
Numbers only; they are read as min.

Need t1/2, item CCN(CC)CCOc1ccc(-c2nc3c(=O)n(C)c(=O)nc-3n(-c3ccccc3)n2)cc1
34.7
